Can you tell me CC50 for the items I'm about to list?
Test: Cytotoxicity against african green monkey Vero cells
Format: cell-based
Details: chlorocebus sabaeus

## Input State, in one line, measured CC50 of CC(=O)O[C@@H]1[C@H]2[C@](C)(O)[C@H](OC(C)=O)C=C[C@]2(C)[C@@H](OC(C)=O)[C@H](OC(C)=O)C/C(C)=C\[C@@H]2OC(=O)[C@]3(C)O[C@@]213 [BRIARLIDE G]
## Output 22.2 µg/mL

## Input State, in one line, measured CC50 of CCCCCC(=O)O[C@H]1/C(C)=C\[C@@H]2OC(=O)[C@]3(C)O[C@]23[C@H](OC(C)=O)[C@H]2[C@](C)(O)[C@H](OC(C)=O)C=C[C@]2(C)[C@@H](OC(C)=O)[C@@H]1O [BRIARLIDE E]
## Output 4.24 µg/mL

## Input State, in one line, measured CC50 of CC(=O)O[C@@H]1[C@H]2[C@](C)(O)[C@H](OC(C)=O)C=C[C@]2(C)[C@@H](O)[C@H](O)[C@@H](OC(C)=O)/C(C)=C\[C@@H]2OC(=O)[C@]3(C)O[C@@]213 [BRIARLIDE C]
## Output 62.1 µg/mL

## Input State, in one line, measured CC50 of CC(=O)O[C@@H]1[C@@H](OC(C)=O)/C(C)=C\[C@@H]2OC(=O)[C@]3(C)O[C@]23[C@H](OC(C)=O)[C@H]2[C@](C)(O)[C@H](O)C=C[C@]2(C)[C@H]1OC(C)=O [VIOLIDE B]
## Output 9.8 µg/mL

## Input State, in one line, measured CC50 of CC(=O)O[C@@H]1[C@H]2[C@](C)(O)[C@H](O)C=C[C@]2(C)[C@@H](O)[C@H](OC(C)=O)C/C(C)=C\[C@@H]2OC(=O)[C@]3(C)O[C@@]213 [BRIARLIDE H]
## Output > 100 µg/mL

----------
Assay: Cytotoxicity against MDCK cells
Type: cell-based, Canis lupus familiaris
Settings: dog
EXPERIMENTAL READOUT: CC50 (µg/mL)
Provide only the numeric value, understood in µg/mL.

## Input State, in one line, measured CC50 of CC(=O)O[C@@H]1[C@H]2[C@](C)(O)[C@H](OC(C)=O)C=C[C@]2(C)[C@@H](OC(C)=O)[C@H](O)[C@@H](OC(C)=O)/C(C)=C\[C@@H]2OC(=O)[C@]3(C)O[C@@]213 [BRIARLIDE B]
## Output 15.4

## Input State, in one line, measured CC50 of CC(=O)O[C@@H]1[C@@H](OC(C)=O)/C(C)=C\[C@@H]2OC(=O)[C@]3(C)O[C@]23[C@H](OC(C)=O)[C@H]2[C@](C)(O)[C@H](OC(C)=O)C=C[C@]2(C)[C@H]1OC(C)=O [BRIARLIDE A]
## Output 4.74

## Input State, in one line, measured CC50 of CC(=O)O[C@@H]1[C@@H](OC(C)=O)/C(C)=C\[C@@H]2OC(=O)[C@]3(C)O[C@]23[C@H](OC(C)=O)[C@H]2[C@](C)(O)[C@H](O)C=C[C@]2(C)[C@H]1OC(C)=O [VIOLIDE B]
## Output 28.8

## Input State, in one line, measured CC50 of CCCCCC(=O)O[C@H]1/C(C)=C\[C@@H]2OC(=O)[C@]3(C)O[C@]23[C@H](OC(C)=O)[C@H]2[C@](C)(O)[C@H](OC(C)=O)C=C[C@]2(C)[C@@H](OC(C)=O)[C@@H]1O [BRIARLIDE E]
## Output 4.91

## Input State, in one line, measured CC50 of CCCCCCCC(=O)O[C@@H]1[C@@H](O)/C(C)=C\[C@@H]2OC(=O)[C@]3(C)O[C@]23[C@H](OC(C)=O)[C@H]2[C@](C)(O)[C@H](OC(C)=O)C=C[C@]2(C)[C@H]1OC(C)=O [BRIARLIDE F]
## Output 3.49

## Input State, in one line, measured CC50 of CC(=O)O[C@@H]1[C@H]2[C@](C)(O)[C@H](OC(C)=O)C=C[C@]2(C)[C@@H](O)[C@H](O)[C@@H](OC(C)=O)/C(C)=C\[C@@H]2OC(=O)[C@]3(C)O[C@@]213 [BRIARLIDE C]
## Output 38.6

## Input State, in one line, measured CC50 of CC(=O)O[C@@H]1[C@H]2[C@](C)(O)[C@H](OC(C)=O)C=C[C@]2(C)[C@@H](OC(C)=O)[C@H](OC(C)=O)C/C(C)=C\[C@@H]2OC(=O)[C@]3(C)O[C@@]213 [BRIARLIDE G]
## Output 67.1

## Input State, in one line, measured CC50 of CCCCCCCC(=O)O[C@H]1/C(C)=C\[C@@H]2OC(=O)[C@]3(C)O[C@]23[C@H](OC(C)=O)[C@H]2[C@](C)(O)[C@H](OC(C)=O)C=C[C@]2(C)[C@@H](OC(C)=O)[C@@H]1O [BRIARLIDE D]
## Output 2.49

----------
Assay: Cytotoxicity against african green monkey Vero cells
Assay type: cell-based
Conditions: chlorocebus sabaeus
Can you tell me CC50 for the items I'm about to list?
Provide only the numeric value, understood in µg/mL.

## Input State, in one line, measured CC50 of CC(=O)O[C@@H]1[C@H]2[C@](C)(O)[C@H](OC(C)=O)C=C[C@]2(C)[C@@H](OC(C)=O)[C@H](O)[C@@H](OC(C)=O)/C(C)=C\[C@@H]2OC(=O)[C@]3(C)O[C@@]213 [BRIARLIDE B]
## Output 18.9

## Input State, in one line, measured CC50 of CC(=O)O[C@@H]1[C@@H](OC(C)=O)/C(C)=C\[C@@H]2OC(=O)[C@]3(C)O[C@]23[C@H](OC(C)=O)[C@H]2[C@](C)(O)[C@H](OC(C)=O)C=C[C@]2(C)[C@H]1OC(C)=O [BRIARLIDE A]
## Output 2.07

## Input State, in one line, measured CC50 of CCCCCCCC(=O)O[C@H]1/C(C)=C\[C@@H]2OC(=O)[C@]3(C)O[C@]23[C@H](OC(C)=O)[C@H]2[C@](C)(O)[C@H](OC(C)=O)C=C[C@]2(C)[C@@H](OC(C)=O)[C@@H]1O [BRIARLIDE D]
## Output 2.26

## Input State, in one line, measured CC50 of CCCCCCCC(=O)O[C@@H]1[C@@H](O)/C(C)=C\[C@@H]2OC(=O)[C@]3(C)O[C@]23[C@H](OC(C)=O)[C@H]2[C@](C)(O)[C@H](OC(C)=O)C=C[C@]2(C)[C@H]1OC(C)=O [BRIARLIDE F]
## Output 4.26
